Target: Phosphodiesterase
Experiment: radioligand competition binding, [3H]Rolipram
Conditions: estimated from the % inhibition data
pIC50: −log10 of the molar value.
assayReadout: pIC50

Memo: COc1cc(C(F)(F)F)c(OC)cc1[C@@H]1CCCNC1 [(S)-11] , reported pIC50: < 5.00

* * *

Molecular target: Neuropeptide Y receptor Y1 (Homo sapiens)
Sequence (P25929 whole entry): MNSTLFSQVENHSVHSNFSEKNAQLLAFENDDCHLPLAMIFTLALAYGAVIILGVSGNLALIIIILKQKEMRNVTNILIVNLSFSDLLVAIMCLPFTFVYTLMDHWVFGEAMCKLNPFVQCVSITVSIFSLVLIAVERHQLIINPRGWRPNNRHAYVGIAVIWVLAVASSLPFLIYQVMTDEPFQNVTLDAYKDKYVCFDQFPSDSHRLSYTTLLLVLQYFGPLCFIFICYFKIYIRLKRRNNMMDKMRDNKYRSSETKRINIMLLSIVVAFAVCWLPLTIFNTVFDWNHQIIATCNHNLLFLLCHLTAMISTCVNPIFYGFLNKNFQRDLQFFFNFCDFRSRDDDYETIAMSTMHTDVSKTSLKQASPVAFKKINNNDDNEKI
assayReadout: IC50

Memo: COc1cc(C(F)(F)F)c(OC)cc1[C@@H]1CCCNC1 [(S)-11] , reported IC50: > 10 µM

* * *

The following compounds are listed with their measured 5-HT2AR Rmax (%) values.
Target: human 5-HT2AR (Homo sapiens, UniProt P28223)
Sequence (P28223 whole entry): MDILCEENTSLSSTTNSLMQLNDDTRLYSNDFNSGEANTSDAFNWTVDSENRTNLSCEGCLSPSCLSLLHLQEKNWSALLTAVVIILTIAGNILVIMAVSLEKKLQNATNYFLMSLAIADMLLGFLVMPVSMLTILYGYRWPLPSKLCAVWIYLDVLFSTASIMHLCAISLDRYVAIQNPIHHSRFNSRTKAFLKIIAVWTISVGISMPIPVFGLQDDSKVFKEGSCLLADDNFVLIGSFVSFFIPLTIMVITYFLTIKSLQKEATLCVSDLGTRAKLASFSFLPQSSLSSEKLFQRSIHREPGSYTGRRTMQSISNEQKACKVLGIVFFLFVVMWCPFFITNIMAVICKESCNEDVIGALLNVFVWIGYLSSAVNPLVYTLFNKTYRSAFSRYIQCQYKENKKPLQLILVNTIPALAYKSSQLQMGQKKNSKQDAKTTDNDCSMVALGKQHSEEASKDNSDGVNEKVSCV
Experiment: Ca2+/Fluo-4 assay, agonist mode, stable 5-HT2AR-HEK293 cells
Settings: Table 1; % of the 5-HT Rmax
Give the value, in units of %, as a plain number.

Memo: NCCc1c[nH]c2ccc(O)cc12 [Compound 5-HT, 5-hydroxytryptamine, reference compound] , reported 5-HT2AR Rmax (%): 100
